Numbers sourced from patent US20090047246A1.

- MEASURED ON: HCV NS3 helicase (Hepatitis C virus genotype 1b, UniProt P26663)
- Construct: full-length NS3 (1-631), purified at Array BioPharma
- Sequence (P26663 1027-1657): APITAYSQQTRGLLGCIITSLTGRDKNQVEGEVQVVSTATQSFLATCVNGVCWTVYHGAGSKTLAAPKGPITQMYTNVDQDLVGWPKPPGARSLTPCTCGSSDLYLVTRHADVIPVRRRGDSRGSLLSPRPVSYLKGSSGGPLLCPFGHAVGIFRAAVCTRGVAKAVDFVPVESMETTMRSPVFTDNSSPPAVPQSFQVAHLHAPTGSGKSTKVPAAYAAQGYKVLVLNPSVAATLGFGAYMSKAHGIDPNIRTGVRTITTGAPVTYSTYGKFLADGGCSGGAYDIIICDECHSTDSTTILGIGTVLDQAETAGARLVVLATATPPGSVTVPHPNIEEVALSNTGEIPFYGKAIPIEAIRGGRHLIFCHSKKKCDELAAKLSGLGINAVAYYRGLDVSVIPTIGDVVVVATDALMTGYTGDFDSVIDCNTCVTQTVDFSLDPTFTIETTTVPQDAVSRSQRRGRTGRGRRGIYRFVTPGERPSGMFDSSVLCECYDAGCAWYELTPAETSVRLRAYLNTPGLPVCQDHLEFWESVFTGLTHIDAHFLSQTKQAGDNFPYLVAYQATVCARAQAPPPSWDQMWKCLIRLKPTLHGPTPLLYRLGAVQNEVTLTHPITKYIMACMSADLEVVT
- EXPERIMENT DESCRIPTION: HCV Helicase Prompt FRET Assay (Example A)
- Type: biochemical
- EXPERIMENTAL CONTEXT: Table 37, compounds made using Scheme 55; read-out: IC50 Activity
Answer each item with its documented IC50.

QUERY: Determine from records and report IC50 for `NC(=O)Nc1cccc(-c2ccc3c(CC(=O)O)cn(Cc4csc5ccc(Cl)cc45)c3c2)c1`
RESULT: 10 to 50 µM

QUERY: Determine from records and report IC50 for `Cc1sc2ccc(Cl)cc2c1Cn1cc(CC(=O)O)c2ccc(-c3ccccc3)cc21`
RESULT: < 10 µM

QUERY: Determine from records and report IC50 for `CC(=O)Nc1ccccc1-c1ccc2c(CC(=O)O)cn(Cc3csc4ccc(Cl)cc34)c2c1`
RESULT: 10 to 50 µM

QUERY: Determine from records and report IC50 for `Cc1cccc(-c2ccc3c(CC(=O)O)cn(Cc4csc5ccc(Cl)cc45)c3c2)c1`
RESULT: 10 to 50 µM

QUERY: Determine from records and report IC50 for `NC(=O)c1cccc(-c2ccc3c(CC(=O)O)cn(Cc4csc5ccc(Cl)cc45)c3c2)c1`
RESULT: 10 to 50 µM

QUERY: Determine from records and report IC50 for `COc1ccccc1-c1ccc2c(CC(=O)O)cn(Cc3csc4ccc(Cl)cc34)c2c1`
RESULT: > 50 µM

----------
Answer each item with its documented IC50.
- MEASURED ON: HCV NS3 helicase (Hepatitis C virus genotype 1b, UniProt P26663)
- Construct: full-length NS3 (1-631), purified at Array BioPharma
- EXPERIMENT DESCRIPTION: HCV Helicase Prompt FRET Assay (Example A)
- Assay type: biochemical
- EXPERIMENTAL CONTEXT: HCV NS3 helicase; tables do not say whether Example A or Example B assay; read-out: IC50 Activity

QUERY: Determine from records and report IC50 for `Cc1cc(-c2cccc(Cn3cc(CC(=O)O)c4cc(OCc5ccccc5)ccc43)c2)on1`
RESULT: 10 to 50 µM

QUERY: Determine from records and report IC50 for COC(=O)C(c1ccccc1)c1cn(-c2ccc([N+](=O)[O-])cc2C)c2ccc(Br)cc12 (centres unmarked)
RESULT: 10 to 50 µM

QUERY: Determine from records and report IC50 for `Cc1cc([N+](=O)[O-])ccc1-n1cc(CC(=O)O)c2cc(Br)cnc21`
RESULT: > 50 µM

QUERY: Determine from records and report IC50 for `O=C(O)Cc1cn(Cc2ccc(Oc3ccccc3F)cc2)c2ccccc12`
RESULT: < 10 µM

QUERY: Determine from records and report IC50 for `Nc1cc(N)cc(-c2ccc3c(CC(=O)O)cn(Cc4csc5ccc(Cl)cc45)c3c2)c1`
RESULT: < 10 µM

QUERY: Determine from records and report IC50 for `O=C(O)Cc1cn(Cc2csc(-c3ccccc3)n2)c2ccc(OCc3ccccc3)cc12`
RESULT: 10 to 50 µM

QUERY: Determine from records and report IC50 for `O=C(O)Cc1cn(Cc2cc(-c3ccccc3)no2)c2ccc(Br)cc12`
RESULT: 10 to 50 µM

QUERY: Determine from records and report IC50 for `O=C(O)Cc1cn(-c2ccc(-c3cccc(C(F)(F)F)c3)cc2)c2ccccc12`
RESULT: < 10 µM
